system: SNB-19 CNS; test: NCI-60 one-dose screen, 48 h (100 = growth as untreated, 0 = no growth, -100 = all killed); settings: 10 µM unless noted
The panel holds about 83,000 compounds, 20% with a hit somewhere; the sample as a whole holds those more often. Calls of active or inactive are those of the source. How the source made its calls: active means growth percent below 10; inactive means the rest.

MOLECULE	growth
O=P(Oc1ccc(Cl)cc1)(N1CC1)N1CC1	91% (inactive)
N#CC1C(C#N)C2CCC1C1C2N1c1ccccc1 (configuration not stated)	104% (inactive)
CCC1(C(C)C)C(=O)NC(=S)NC1=O	108% (inactive)
COC(=O)[C@]12CCC(C)(C)C[C@H]1[C@H]1C(=O)C[C@@H]3[C@@]4(C)C[C@@]5(CC(C)(C)[C@@H]4CC[C@@]3(C)[C@]1(C)CC2)OO[C@@](C)(C(F)(F)F)O5	91.7% (inactive)
CC(=O)OCc1cc[c]([Hg][Cl])o1	45.2% (inactive)
Cc1ccc(C(=O)NCCCOc2ccc(N3C(N)=NC(N)=NC3(C)C)cc2Cl)cc1S(=O)(=O)F	72.2% (inactive)
CCOP(=O)(Cc1ccc(C#N)cc1)OCC	97.3% (inactive)
COC(=O)[C@@H](C)C[C@H](Cc1ccccc1)NC(=O)c1nc([C@@H](C[C@H](C(C)C)N(C)C(=O)[C@@H](NC(=O)[C@H]2CC(=O)CCN2C)C(C)C)OC(C)=O)sc1C(C)C	21.2% (inactive)
CC(=O)O[C@H]1CC[C@@]2(C)C(=CC[C@H]3[C@@H]4C[C@@H](N5CC5)[C@H](C(C)=O)[C@@]4(C)CC[C@@H]32)C1	100% (inactive)
COc1ccc2c(c1)c(-c1nc(-c3c[nH]c4ncccc34)cs1)cn2CCN1CCOCC1	67% (inactive)
CC(=O)/C=C/c1ccc2c(c1)OCO2	84.6% (inactive)
CCCCCCCOC(C(=O)OCCN(CC)CC)(c1ccccc1)c1ccccc1	94% (inactive)
COc1cc([N+](=O)[O-])c2nc(C)ccc2c1[N+](=O)[O-]	95.2% (inactive)
O=[N+]([O-])CC(O)C(Cl)(Cl)Cl (configuration not stated)	106% (inactive)
CCCCOc1ccc(C(N)Cc2ccccc2)cc1 (configuration not stated)	97% (inactive)
COc1ccc(C(=O)c2sc3nc4c(cc3c2N)N2CCC4CC2)cc1OC	108% (inactive)
COC(=O)[C@@H](C)C[C@H](Cc1cn(C)c2ccccc12)NC(=O)c1csc([C@@H](C[C@H](C(C)C)N(C)C(=O)[C@@H](NC(=O)[C@H]2CCCCN2C)C(C)C)OC(C)=O)n1	35.6% (inactive)
Cn1cc(-c2csc(-c3cn(CCCCN4CCCCC4)c4ccccc34)n2)c2cccnc21	-32.1% (active)
O=C(c1cccc(O)c1O)c1cn(Cc2ccc(F)cc2)c2cccc(O)c12	37.3% (inactive)
Clc1cc(N2CC2)nc(N2CC2)n1	65.9% (inactive)
C=C1C(=O)O[C@H]2[C@H]1CC/C(COC(=O)C(=O)c1cn(Cc3ccccc3)c3ccccc13)=C\CC[C@@]1(C)O[C@@H]21	3.39% (active)
O=NN1CCCc2cccc(O)c21	31% (inactive)
C#Cc1ccc2c(c1)C(c1ccccc1)=NCC(=O)N2C	46.6% (inactive)
OCc1ccc2c(c1)OCO2	104% (inactive)
COc1cc([C@@H]2c3cc4c(cc3[C@H](OC(C)=O)[C@H]3COC(=O)[C@H]23)OCO4)cc(OC)c1OC	39.4% (inactive)
CCCCCCCCCCCCCCCCCC1OC[C@H](COC(=O)O[C@@H](C(=O)O[C@H]2C[C@@]3(O)[C@@H](OC(=O)c4ccccc4)[C@@H]4[C@]5(OC(C)=O)CO[C@@H]5C[C@H](O)[C@@]4(C)C(=O)[C@H](OC(C)=O)C(=C2C)C3(C)C)[C@@H](NC(=O)c2ccccc2)c2ccccc2)O1 (some centres not stated)	49.6% (inactive)
COC(=O)[C@@H](C)C[C@H](Cc1ccccc1)NC(=O)c1csc([C@@H](C[C@H](C(C)C)N(C)C(=O)[C@@H](NC(=O)[C@H]2CCCCN2C)c2ccc(F)cc2)OC(C)=O)n1	74.8% (inactive)
CC(C)=CCc1c(O)c(C(=O)CC(C)C)c(O)c2c(-c3ccccc3)cc(=O)oc12	42.1% (inactive)
CCOP(=O)(NC[C@H]1O[C@](O)(CO)[C@@H](O)[C@@H]1O)OCC	97% (inactive)
COc1cc(/C=C\c2cc(OC)c(OC)c(OC)c2)cc(NS(=O)(=O)c2cccc(Cl)c2)c1OC	41.2% (inactive)
C[C@@H]1O[C@@H](O[C@H]2C[C@@H](O)[C@]3(CO)C4C(CC[C@]3(O)C2)[C@@]2(O)CC[C@H](C3=CC(=O)OC3)[C@@]2(C)C[C@H]4O)[C@H](O)[C@H](O)[C@H]1O (some centres not stated)	-94.6% (active)
Clc1cccc(NCOOC2(OOCNc3cccc(Cl)c3)CCCCCC2)c1	93.2% (inactive)
CCCCCCCC[n+]1ccc2ccccc2c1	53.8% (inactive)
C=CC[n+]1ccc(-c2cc[n+](CC=C)cc2)cc1	111% (inactive)
O=C(Nc1ccc(O)cc1)C(Cl)(Cl)Cl	102% (inactive)
Cc1c(NS(=O)(=O)c2ccccc2)ccc([N+](=O)[O-])c1Cl	61.7% (inactive)
CC1=C(O)[C@@](C)(CCCCC[C@H](C)CCCCc2ccc(O)cc2)OOC1=O	101% (inactive)
